Exercise: state measured growth inhibition for each of the compounds provided.
Tested on: HGGX39 (paediatric high-grade glioma line)
procedure-summary: growth inhibition (% activity, log2 RLU normalised to DMSO / staurosporine); higher = more growth inhibition
run-parameters: 33 µM
# output: numeric value plus its unit

### Prompt Find the measured growth inhibition of `COc1ccc2c(c1)c(CC(=O)O)c(C)n2C(=O)c1ccc(Cl)cc1` and report it.
### Response -3.42%

### Prompt Input Clc1ccc(CCC(Cn2ccnc2)Sc2c(Cl)cccc2Cl)cc1 (centres undefined) , output reported growth inhibition.
### Response 13.2%

### Prompt Return the recorded growth inhibition value; entry: `CCN(CC)CCOC(=O)c1ccc(N)cc1`
### Response 3.11%

### Prompt Read off the recorded growth inhibition for `CC(=O)O[C@H]1C[C@@H]2CC[C@@H]3[C@H](CC[C@@]4(C)[C@H]3C[C@H]([N+]3(C)CCCCC3)[C@@H]4OC(C)=O)[C@@]2(C)C[C@@H]1N1CCCCC1`
### Response 1.15%

### Prompt Please report the measured growth inhibition for CC(C(=O)O)c1ccc2c(c1)CC(=O)c1ccccc1S2 (centres undefined)
### Response 2.45%

### Prompt Item `Oc1ncnc2[nH]ncc12` : provide growth inhibition
### Response -3.77%

### Prompt Supply reported growth inhibition belonging to this compound: `O=c1[nH]cc(F)c(=O)[nH]1`
### Response 5.4%

### Prompt Name the recorded growth inhibition of the item `Nc1nc(F)nc2c1ncn2[C@@H]1O[C@H](COP(=O)(O)O)[C@@H](O)[C@@H]1O` in your answer.
### Response 8.94%

### Prompt Find the measured growth inhibition of `N#C[C@@H]1C[C@@H]2C[C@@H]2N1C(=O)[C@@H](N)C12CC3CC(CC(O)(C3)C1)C2` and report it.
### Response 5.53%

### Prompt Provide measured growth inhibition value, entry: `CC[C@@H]([C@H](C)O)n1ncn(-c2ccc(N3CCN(c4ccc(OC[C@@H]5CO[C@@](Cn6cncn6)(c6ccc(F)cc6F)C5)cc4)CC3)cc2)c1=O`
### Response -0.245%

### Prompt Provide measured growth inhibition value, entry: `Cc1cnc(NC(=O)C2=C(O)c3ccccc3S(=O)(=O)N2C)s1`
### Response -0.277%

### Prompt For the compound `C/C(O)=C(\C#N)C(=O)Nc1ccc(C(F)(F)F)cc1` , give its measured growth inhibition value.
### Response 5.87%

### Prompt Answer with the recorded growth inhibition for the compound listed here: `N#C[C@@H]1CCCN1C(=O)CNC12CC3CC(CC(O)(C3)C1)C2`
### Response 0.579%

### Prompt Retrieve growth inhibition measured for C[C@H]1O[C@H](O[C@H]2[C@H](O)[C@@H](O)[C@@H](O[C@H]3[C@H](O)[C@@H](O)C(O)O[C@@H]3CO)O[C@@H]2CO)[C@H](O)[C@@H](O)[C@@H]1N[C@H]1C=C(CO)[C@@H](O)[C@H](O)[C@H]1O (some centres undefined) and print it.
### Response -1.75%

### Prompt Fill in growth inhibition for record `O=c1oc2c(O)c(O)cc3c(=O)oc4c(O)c(O)cc1c4c23`
### Response 1.54%

### Prompt Fill in reported growth inhibition for this entry: `NNC(=O)c1ccncc1`
### Response 0.333%

### Prompt Supply recorded growth inhibition for `Nc1ccc(C(=O)NCC(=O)O)cc1` here.
### Response 1.62%

### Prompt Let me know recorded growth inhibition for `NC(=O)c1cn(Cc2c(F)cccc2F)nn1` , thanks.
### Response -1.24%

### Prompt Please report growth inhibition for the following compound: C#CC1(O)CC[C@H]2[C@@H]3CCC4=CC(=O)CC[C@@H]4[C@H]3CC[C@@]21CC (some centres undefined)
### Response 0.0435%

### Prompt Indicate the recorded growth inhibition value for this compound: `CN1C(C(=O)Nc2ccccn2)=C(O)c2sccc2S1(=O)=O`
### Response 0.358%

### Prompt Fill in reported growth inhibition for this entry: `COc1ccc([C@@H]2Sc3ccccc3N(CCN(C)C)C(=O)[C@@H]2OC(C)=O)cc1`
### Response -2.92%

### Prompt Item `O=P(O)(O)C(O)(Cn1ccnc1)P(=O)(O)O` : provide growth inhibition
### Response 2.08%

### Prompt Determine its reported growth inhibition: `CN1[C@@H]2CC[C@H]1C[C@@H](OC(c1ccccc1)c1ccccc1)C2`
### Response 6.58%

### Prompt Complete the entry with growth inhibition for `CCN[C@H]1CN(CCCOC)S(=O)(=O)c2sc(S(N)(=O)=O)cc21`
### Response 2.35%

### Prompt Give the value of growth inhibition reported for the following: `COC(=O)N[C@H](C(=O)N[C@@H](Cc1ccccc1)[C@@H](O)CN(Cc1ccc(-c2ccccn2)cc1)NC(=O)[C@@H](NC(=O)OC)C(C)(C)C)C(C)(C)C`
### Response -2.26%

### Prompt Give the reported value of growth inhibition for this record: `CC(=O)OCC(=O)[C@H]1CC[C@H]2[C@@H]3CCC4=CC(=O)CC[C@]4(C)[C@H]3CC[C@]12C`
### Response 1.53%

### Prompt Give the value of growth inhibition reported for the following: `C[C@H](N[C@@H](CCc1ccccc1)C(=O)O)C(=O)N1CCC[C@H]1C(=O)O`
### Response -1.61%

### Prompt Dear colleague, please send me the reported growth inhibition for COCCOC(=O)C1=C(C)NC(C)=C(C(=O)OC(C)C)C1c1cccc([N+](=O)[O-])c1 (centres undefined) when you can.
### Response 1.43%

### Prompt Please give the documented growth inhibition of `C[C@]12CC[C@@H]3c4ccc(O)cc4CC[C@H]3[C@@H]1CCC2=O`
### Response 3.84%

### Prompt Determine from records and report growth inhibition for `CCOC(=O)c1ccc(N)cc1`
### Response -1.05%

### Prompt Consider the compound `CC(C)(C)CC(C)(C)c1ccc(O)c(Cc2ccc(Cl)cc2Cl)c1` and give its recorded growth inhibition.
### Response 0.861%

### Prompt Provide growth inhibition value for the following compound: `Nc1nc(=O)n([C@@H]2CS[C@H](CO)O2)cc1F`
### Response 1.6%

### Prompt Item `COc1cc2c(cc1O)CC[C@@H]1[C@@H]2CC[C@]2(C)[C@@H](O)CC[C@@H]12` : provide growth inhibition
### Response 13.2%

### Prompt Please report the measured growth inhibition for CC1CC(OC(=O)C(O)c2ccccc2)CC(C)(C)C1 (centres undefined)
### Response 1.43%

### Prompt Using the record for `C[C@@H]1CN(c2c(F)c(F)c3c(=O)c(C(=O)O)cn(C4CC4)c3c2F)C[C@H](C)N1` , state its measured growth inhibition.
### Response 1.32%

### Prompt In one line, give reported growth inhibition of the entry `CNCCCC12CCC(c3ccccc31)c1ccccc12` .
### Response -0.798%

### Prompt Please report the measured growth inhibition for `CC(=O)[C@H]1CC[C@H]2[C@@H]3CC=C4C[C@@H](O)CC[C@]4(C)[C@H]3CC[C@]12C`
### Response -1.75%

### Prompt Tell me measured growth inhibition for `O=C(Nc1cccc2c(=O)cc(-c3nnn[nH]3)oc12)c1ccc(OCCCCc2ccccc2)cc1` please.
### Response 2.23%

### Prompt Specify measured growth inhibition for `O.O=[Si]=O.O=[Si]=O.O=[Si]=O.O=[Si]=O.[O]=[Mg].[O]=[Mg].[O]=[Mg]` .
### Response 1.22%

----------
What growth inhibition was measured for each of the following?
Tested on: SUDIPGVI (diffuse intrinsic pontine glioma line)
procedure-summary: growth inhibition (% activity, log2 RLU normalised to DMSO / staurosporine); higher = more growth inhibition
run-parameters: 33 µM
All answers are understood in %, so give the number only.

### Prompt For the compound `NC[C@H](O)c1ccc(O)c(O)c1` , report growth inhibition.
### Response 3.2

### Prompt Please give measured growth inhibition of the following entry: `O=c1[nH]c(=O)n([C@H]2C[C@H](O)[C@@H](CO)O2)cc1I`
### Response -0.112

### Prompt State its growth inhibition for this compound: `CC(=O)/N=c1/sc(S(N)(=O)=O)nn1C`
### Response 1.6

### Prompt Tell me growth inhibition reported for `C[C@@H]1C[C@H]2[C@@H]3C[C@H](F)C4=CC(=O)C=C[C@]4(C)[C@@]3(F)[C@@H](O)C[C@]2(C)[C@@]1(O)C(=O)CO`
### Response 0.461

### Prompt Provide one value: measured growth inhibition of `N=C(N)N`
### Response -0.000495

### Prompt # return recorded growth inhibition for entry `CCCCCCNC(=O)n1cc(F)c(=O)[nH]c1=O`
### Response 3.57

### Prompt Name the recorded growth inhibition of the item `NC[C@H]1O[C@H](O[C@H]2[C@H](O)[C@@H](O[C@H]3O[C@H](CO)[C@@H](O)[C@H](N)[C@H]3O)[C@H](N)C[C@@H]2N)[C@H](N)C[C@@H]1O` in your answer.
### Response -0.514

### Prompt Specify measured growth inhibition for `Cc1cccn2c(=O)c(-c3nnn[nH]3)cnc12` .
### Response 0.709

### Prompt Let me know recorded growth inhibition for `CCOC(=O)c1ccc(N)cc1` , thanks.
### Response -0.0967

### Prompt Give recorded growth inhibition. Cc1ncc([N+](=O)[O-])n1CC(C)O (configuration not stated)
### Response -0.382

### Prompt For the compound `O=C(O)c1cc(/N=N/c2ccc(S(=O)(=O)Nc3ccccn3)cc2)ccc1O` , give its reported growth inhibition.
### Response 1.96

### Prompt Report measured growth inhibition; entry is `Cc1ccc(NC(=O)c2ccc(CN3CCN(C)CC3)cc2)cc1Nc1nc(-c2cccnc2)cs1`
### Response 9.06

### Prompt Identify growth inhibition associated with the compound `Oc1c(Br)cc(Br)c2cccnc12`
### Response 2.93

### Prompt Query growth inhibition for `COc1c2ccoc2cc2oc(=O)ccc12`
### Response 0.394

### Prompt Annotate the compound `O=c1[nH]c(=O)n([C@H]2C[C@H](O)[C@@H](CO)O2)cc1C(F)(F)F` with its measured growth inhibition.
### Response -3.24

### Prompt Provide measured growth inhibition value, entry: `CN(C)c1ccc(O)c2c1C[C@H]1C[C@H]3[C@H](N(C)C)C(=O)C(C(N)=O)=C(O)[C@@]3(O)C(=O)C1=C2O`
### Response -1.8

### Prompt Please list growth inhibition recorded for the compound `NCCc1ccc(O)c(O)c1`
### Response 0.907

### Prompt Name the recorded growth inhibition of the compound listed here: `CC(=O)OCC[N+](C)(C)C`
### Response 2.81

### Prompt Return reported growth inhibition. Input compound: CSc1ccc2c(c1)N(CCC1CCCCN1C)c1ccccc1S2 (configuration not stated)
### Response -0.552

### Prompt Give the value of growth inhibition reported for the following: `c1ccc2[nH]c(-c3cscn3)nc2c1`
### Response 1.13

### Prompt Please report growth inhibition for the following compound: `CCN[C@@H]1C[C@H](N)[C@@H](O[C@H]2OC(CN)=CC[C@H]2N)[C@H](O)[C@H]1O[C@H]1OC[C@](C)(O)[C@H](NC)[C@H]1O`
### Response 2.97

### Prompt Respond only with growth inhibition recorded for `O=C(Nc1ccc([N+](=O)[O-])cc1Cl)c1cc(Cl)ccc1O`
### Response 3.13
